Target: recombinant human PAI-1 (Homo sapiens)
Sequence (P05121 24-402): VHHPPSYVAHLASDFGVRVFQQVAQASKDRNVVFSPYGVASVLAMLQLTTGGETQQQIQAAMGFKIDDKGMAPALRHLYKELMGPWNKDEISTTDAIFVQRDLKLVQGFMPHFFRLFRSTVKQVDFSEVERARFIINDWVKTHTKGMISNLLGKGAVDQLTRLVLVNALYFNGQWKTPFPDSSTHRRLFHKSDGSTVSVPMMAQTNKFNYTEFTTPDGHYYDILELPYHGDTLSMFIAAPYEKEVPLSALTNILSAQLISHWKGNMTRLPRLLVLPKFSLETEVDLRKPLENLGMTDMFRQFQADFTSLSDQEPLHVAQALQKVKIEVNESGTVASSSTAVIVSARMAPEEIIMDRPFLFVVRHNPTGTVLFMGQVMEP
Assay: biochemical
Conditions: read-out: Inhibition Rate of PAI-1 Activity (%)
Assign class by inhibition at 5 µM: not lower than 30% means fulfilled; lower than 30% means not fulfilled.

# Compound, Assigned category
records = [
    ("CC(C)(C)c1ccc(CN(C(=O)C(=O)O)c2ccc(-c3ccc(OC(F)(F)F)cc3)cc2OC(F)(F)F)cc1 [Compound 151]", "fulfilled"),
    ("Cc1cc(-c2ccc(OC(F)(F)F)cc2)cc(C)c1N(Cc1ccc(C(C)(C)C)cc1)C(=O)C(=O)O [Compound 152]", "fulfilled"),
    ("Cc1cc(-c2ccc(OC(F)(F)F)cc2)cc(CCC(=O)O)c1OCc1ccc(C(C)(C)C)cc1 [Compound 84]", "not fulfilled"),
    ("CC(C)(C)c1ccc(CN(C(=O)C(=O)O)c2ccc(OCc3ccccc3)c(-c3ccc(OC(F)(F)F)cc3)c2)cc1 [Compound 212]", "fulfilled"),
    ("O=C(O)C(=O)N(CCCc1ccccc1)c1ccc(-c2ccc(OC(F)(F)F)cc2)cc1 [Compound 224]", "not fulfilled"),
    ("O=C(O)C(=O)N(CCCCc1ccccc1)c1ccc(N2CCOCC2)c(-c2ccc(OC(F)(F)F)cc2)c1 [Compound 243]", "fulfilled"),
    ("CCCCCCOc1ccc(-c2ccc(OC(F)(F)F)cc2)cc1N(CCCCc1ccccc1)C(=O)C(=O)O [Compound 245]", "fulfilled"),
    ("CC(C)(C)c1ccc(COc2ccc(OCc3ccc(OC(F)(F)F)cc3)cc2/C=C/C(=O)O)cc1 [Compound 413]", "fulfilled"),
]

Quick check, inhibition at 5 µM >= 30%? CC(C)(C)c1ccc(CN(C(=O)C(=O)O)c2ccc(OCc3ccc(OC(F)(F)F)cc3)cc2)cc1 [Compound 616]
fulfilled

Determine whether this compound has inhibition at 5 µM no lower than 30%: CC(C)Oc1ccc(N(CCCc2ccccc2)C(=O)C(=O)O)c(-c2ccc(OC(F)(F)F)cc2)c1 [Compound 239]
fulfilled

Textbook exercise: given the entry CCCCCCN(C(=O)C(=O)O)c1ccc(Oc2ccc(OC(F)(F)F)cc2)cc1 [Compound 252] , state whether its inhibition at 5 µM is greater than or equal to 30%.
not fulfilled

inhibition at 5 µM >= 30% for CC(C)(C)c1ccc(CN(C(=O)C(=O)O)c2c(Cl)cc(-c3ccc(OC(F)(F)F)cc3)cc2Cl)cc1 [Compound 173] ?
fulfilled

Kindly determine if inhibition at 5 µM recorded for O=C(O)C(=O)N(Cc1ccc(F)cc1)c1ccc(-c2ccc(OC(F)(F)F)cc2)cc1 [Compound 155] is above or exactly 30%.
not fulfilled

Entry CCC(Oc1ccc(-c2ccc(OC(F)(F)F)cc2)cc1Oc1ccc(C(C)(C)C)cc1)C(=O)O (stereo not shown) [Compound 114] : is its inhibition at 5 µM no less than 30%?
fulfilled

* * *

Biological target: recombinant human PAI-1 (Homo sapiens)
Test: Test Example 2: Human PAI-1 Inhibitory Activity (pH 7.4 HEPES buffer, 10 minutes incubation with two-chain tPA)
Assay type: biochemical
Design: purchased Molecular Innovations, Inc
Details: read-out: Inhibition Rate of PAI-1 Activity (%)
Label scheme for inhibition at 0.3 µM: lower than 10% is No, 10% and above is Yes.

# Compound, Assigned category
measured = [
    ("CCCCCCCOc1cc(N(CCCCc2ccccc2)C(=O)C(=O)O)ccc1-c1ccc(OC(F)(F)F)cc1 [Compound 650]", "Yes"),
    ("CC(C)(C)c1cccc(Oc2ccc(-c3ccc(OC(F)(F)F)cc3)cc2CCC(=O)O)c1 [Compound 438]", "Yes"),
    ("CCCCCOc1ccc(-c2ccc(F)cc2)cc1N(CCCCc1ccccc1)C(=O)C(=O)O [Compound 359]", "No"),
    ("CCCCCCCCCOc1cc(-c2ccc(OC(F)(F)F)cc2)ccc1N(CCCCc1ccccc1)C(=O)C(=O)O [Compound 380]", "Yes"),
]

Could you now look at the following compound, please?
I'd appreciate it if you could say whether CCCCCOc1ccc(-c2ccc(OC(F)(F)F)cc2)cc1N(CC(=O)O)C(=O)CCCc1ccccc1 [Compound 682] has inhibition at 0.3 µM at least equal to 10%.
No
